TESTED ON: RosA (N,N-8-demethyl-8-amino-D-riboflavin dimethyltransferase) (Streptomyces davaonensis)
Construct: full length, hexahistidine-tagged (pET24a(+)rosA-His6, pFJ02), tag kept, E. coli Rosetta 2 (DE3); 353 amino acids; subunit 38 kDa, native 77 kDa, homodimer
Sequence (K4RFM2 whole entry): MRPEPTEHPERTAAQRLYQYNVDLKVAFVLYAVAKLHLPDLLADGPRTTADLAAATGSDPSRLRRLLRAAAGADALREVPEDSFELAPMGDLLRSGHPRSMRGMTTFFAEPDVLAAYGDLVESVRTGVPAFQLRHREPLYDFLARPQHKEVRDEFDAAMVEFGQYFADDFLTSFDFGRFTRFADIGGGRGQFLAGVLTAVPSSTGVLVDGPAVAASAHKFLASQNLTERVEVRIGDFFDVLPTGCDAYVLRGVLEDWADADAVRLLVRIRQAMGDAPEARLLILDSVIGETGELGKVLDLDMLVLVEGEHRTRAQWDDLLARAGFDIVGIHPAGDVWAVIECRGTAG
PROCEDURE SUMMARY: isothermal titration calorimetry
Type: binding
pKd: −log10 of the molar value.
ENDPOINT: pKd

>>> measured_number("C[S+](CC[C@H](N)C(=O)O)C[C@H]1O[C@@H](n2cnc3c(N)ncnc32)[C@H](O)[C@@H]1O (stereo partly shown) [SAM]")
4.66

---

TESTED ON: RosA (N,N-8-demethyl-8-amino-D-riboflavin dimethyltransferase) (Streptomyces davaonensis)
Construct: full length, hexahistidine-tagged (pET24a(+)rosA-His6, pFJ02), tag kept, E. coli Rosetta 2 (DE3); 353 amino acids; subunit 38 kDa, native 77 kDa, homodimer
PROCEDURE SUMMARY: isothermal titration calorimetry
Type: binding
STUDY CONDITIONS: read-out: SAH
pKd: −log10 of the molar value.
ENDPOINT: pKd

>>> measured_number("Nc1ncnc2c1ncn2[C@@H]1O[C@H](CSCC[C@H](N)C(=O)O)[C@@H](O)[C@H]1O [SAH]")
5.70
